target: Platelet-derived growth factor receptor (Homo sapiens, UniProt P09619+P16234); experiment: Inhibition of human PDGFR
READOUT: IC50

compound="Nc1ncnc2occ(-c3ccc(NC(=O)Nc4cc(C(F)(F)F)ccc4F)cc3)c12 [GW770249X]" recorded_value="27.5 nM"

----------
biological target: Angiopoietin-1 receptor (Homo sapiens); assay: Inhibition of human Tie2 by HTRF method
Sequence (Q02763 whole entry): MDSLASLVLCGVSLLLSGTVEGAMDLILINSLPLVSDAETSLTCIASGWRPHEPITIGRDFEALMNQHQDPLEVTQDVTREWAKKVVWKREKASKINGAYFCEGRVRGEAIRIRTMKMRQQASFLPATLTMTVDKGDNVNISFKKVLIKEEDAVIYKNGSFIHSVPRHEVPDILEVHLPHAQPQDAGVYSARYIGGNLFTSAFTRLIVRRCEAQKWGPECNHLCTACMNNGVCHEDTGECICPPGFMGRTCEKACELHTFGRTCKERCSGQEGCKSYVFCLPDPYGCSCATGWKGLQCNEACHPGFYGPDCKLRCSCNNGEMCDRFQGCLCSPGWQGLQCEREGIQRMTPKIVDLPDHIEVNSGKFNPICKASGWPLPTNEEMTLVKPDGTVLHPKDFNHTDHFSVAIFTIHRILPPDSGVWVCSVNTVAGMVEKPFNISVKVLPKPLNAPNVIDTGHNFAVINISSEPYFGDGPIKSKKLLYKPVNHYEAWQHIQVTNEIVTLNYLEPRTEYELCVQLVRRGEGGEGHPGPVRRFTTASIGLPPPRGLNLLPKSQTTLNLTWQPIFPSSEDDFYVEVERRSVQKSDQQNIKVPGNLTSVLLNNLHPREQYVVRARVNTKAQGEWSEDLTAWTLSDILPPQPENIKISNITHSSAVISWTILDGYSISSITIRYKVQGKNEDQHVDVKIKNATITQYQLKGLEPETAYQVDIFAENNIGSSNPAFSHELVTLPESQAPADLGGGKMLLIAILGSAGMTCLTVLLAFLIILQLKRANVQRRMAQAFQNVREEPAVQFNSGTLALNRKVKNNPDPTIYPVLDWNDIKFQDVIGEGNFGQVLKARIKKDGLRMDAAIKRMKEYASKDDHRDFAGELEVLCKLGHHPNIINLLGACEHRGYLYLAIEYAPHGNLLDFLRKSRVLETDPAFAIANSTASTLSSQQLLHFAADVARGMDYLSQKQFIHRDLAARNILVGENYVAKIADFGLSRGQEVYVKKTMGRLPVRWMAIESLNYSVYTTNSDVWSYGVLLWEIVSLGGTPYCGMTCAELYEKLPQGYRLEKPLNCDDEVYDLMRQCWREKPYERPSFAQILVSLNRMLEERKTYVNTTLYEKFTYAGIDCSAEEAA
pIC50: −log10 of the molar value.
Recorded pIC50 by entry
READOUT: pIC50

compound=Nc1ncnc2occ(-c3ccc(NC(=O)Nc4ccc5ccccc5c4)cc3)c12 assayed_target="Angiopoietin-1 receptor (Homo sapiens)" readout=pIC50 recorded_value=7.09
compound=Nc1ncnc2occ(-c3ccc(NC(=O)Nc4cccc(Oc5ccccc5)c4)cc3)c12 assayed_target="Angiopoietin-1 receptor (Homo sapiens)" readout=pIC50 recorded_value=6.39
compound=Nc1ncnc2occ(-c3ccc(NC(=O)Nc4cccc5ccccc45)cc3)c12 assayed_target="Angiopoietin-1 receptor (Homo sapiens)" readout=pIC50 recorded_value=6.74
compound="Nc1ncnc2occ(-c3ccc(NC(=O)Nc4cc(C(F)(F)F)ccc4F)cc3)c12 [GW770249X]" assayed_target="Angiopoietin-1 receptor (Homo sapiens)" readout=pIC50 recorded_value=7.87
compound=COc1ccc(F)c(NC(=O)Nc2ccc(-c3coc4ncnc(N)c34)cc2)c1 assayed_target="Angiopoietin-1 receptor (Homo sapiens)" readout=pIC50 recorded_value=6.65
compound="Nc1ncnc2occ(-c3ccc(NC(=O)Nc4cc(C(F)(F)F)cc(C(F)(F)F)c4)cc3)c12 [GW795486X]" assayed_target="Angiopoietin-1 receptor (Homo sapiens)" readout=pIC50 recorded_value=6.42
compound="Nc1ncnc2occ(-c3ccc(NC(=O)Nc4cccc(C(F)(F)F)c4)cc3)c12 [GW795493X]" assayed_target="Angiopoietin-1 receptor (Homo sapiens)" readout=pIC50 recorded_value=7.99
compound=Nc1ncnc2occ(-c3ccc(NC(=O)Nc4cc(C(F)(F)F)ccc4Cl)cc3)c12 assayed_target="Angiopoietin-1 receptor (Homo sapiens)" readout=pIC50 recorded_value=6.69

----------
target: Proto-oncogene tyrosine-protein kinase Src (Homo sapiens, UniProt P12931); assay: Inhibition of human SRC
Sequence (P12931 2-536 limits assumed): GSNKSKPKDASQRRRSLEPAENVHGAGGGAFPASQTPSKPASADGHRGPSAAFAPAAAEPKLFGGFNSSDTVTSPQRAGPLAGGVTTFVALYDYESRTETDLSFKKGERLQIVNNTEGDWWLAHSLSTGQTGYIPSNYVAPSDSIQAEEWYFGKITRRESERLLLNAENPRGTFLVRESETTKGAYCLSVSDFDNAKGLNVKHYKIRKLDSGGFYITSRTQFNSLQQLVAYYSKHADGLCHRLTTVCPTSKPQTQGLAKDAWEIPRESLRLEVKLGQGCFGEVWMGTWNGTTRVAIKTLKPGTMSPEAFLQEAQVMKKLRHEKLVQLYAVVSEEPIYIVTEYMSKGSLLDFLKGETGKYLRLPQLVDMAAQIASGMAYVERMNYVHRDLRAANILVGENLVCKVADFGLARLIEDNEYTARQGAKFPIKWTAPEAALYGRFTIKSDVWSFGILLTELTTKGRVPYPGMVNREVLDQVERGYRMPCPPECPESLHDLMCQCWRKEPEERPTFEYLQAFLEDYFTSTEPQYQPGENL
READOUT: IC50 (µM)

compound="Nc1ncnc2occ(-c3ccc(NC(=O)Nc4cc(C(F)(F)F)ccc4F)cc3)c12 [GW770249X]" readout=IC50 value_unit=µM recorded_value=0.537

----------
assay: Cmax in CD1 mouse at 10.7 mg/kg, po; assay type: ADME, organism-based; design: dose 10.7 mg/kg, route oral; conditions: in vivo
READOUT: Cmax (ng/mL)

molecule="Nc1ncnc2occ(-c3ccc(NC(=O)Nc4cc(C(F)(F)F)ccc4F)cc3)c12 [GW770249X]" recorded_value=2720

----------
system: HT-29; test: Cytotoxicity against human HT29 cells after 3 days; settings: HT-29, 72 h
READOUT: IC50 (µM)

compound="Nc1ncnc2occ(-c3ccc(NC(=O)Nc4cc(C(F)(F)F)ccc4F)cc3)c12 [GW770249X]" readout=IC50 recorded_value=5.08

----------
target: Macrophage colony-stimulating factor 1 receptor (Homo sapiens)
Sequence (P07333 whole entry): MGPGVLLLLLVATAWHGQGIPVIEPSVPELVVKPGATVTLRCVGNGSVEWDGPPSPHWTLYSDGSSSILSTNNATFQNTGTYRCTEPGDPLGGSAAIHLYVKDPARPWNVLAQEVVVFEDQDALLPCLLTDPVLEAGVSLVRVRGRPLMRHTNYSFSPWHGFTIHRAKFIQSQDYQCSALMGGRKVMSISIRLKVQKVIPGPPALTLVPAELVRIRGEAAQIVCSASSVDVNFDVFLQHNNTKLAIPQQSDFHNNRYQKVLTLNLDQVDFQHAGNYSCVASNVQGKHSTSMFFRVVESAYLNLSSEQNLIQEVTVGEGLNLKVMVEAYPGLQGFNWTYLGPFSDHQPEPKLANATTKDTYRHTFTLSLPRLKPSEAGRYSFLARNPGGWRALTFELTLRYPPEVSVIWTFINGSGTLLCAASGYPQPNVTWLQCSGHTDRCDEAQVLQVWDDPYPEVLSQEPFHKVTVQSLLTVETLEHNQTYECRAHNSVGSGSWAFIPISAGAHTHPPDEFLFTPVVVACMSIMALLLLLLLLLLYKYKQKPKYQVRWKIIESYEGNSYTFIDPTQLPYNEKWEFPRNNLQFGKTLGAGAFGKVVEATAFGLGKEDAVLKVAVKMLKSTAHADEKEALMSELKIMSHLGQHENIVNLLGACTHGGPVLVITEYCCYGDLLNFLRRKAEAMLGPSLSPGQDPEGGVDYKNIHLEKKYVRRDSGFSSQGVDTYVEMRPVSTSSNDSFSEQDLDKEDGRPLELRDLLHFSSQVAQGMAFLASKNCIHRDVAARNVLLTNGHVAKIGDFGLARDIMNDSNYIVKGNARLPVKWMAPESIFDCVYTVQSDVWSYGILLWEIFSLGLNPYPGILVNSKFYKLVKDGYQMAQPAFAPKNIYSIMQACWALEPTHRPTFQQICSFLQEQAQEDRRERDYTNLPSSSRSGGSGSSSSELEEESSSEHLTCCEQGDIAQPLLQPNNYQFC
READOUT: IC50 (nM)

compound="Nc1ncnc2occ(-c3ccc(NC(=O)Nc4cc(C(F)(F)F)ccc4F)cc3)c12 [GW770249X]" recorded_value=38.9

----------
experiment: AUC (0 to t) in CD1 mouse at 10.7 mg/kg, po; assay type: ADME, organism-based; set-up: dose 10.7 mg/kg, route oral; details: plasma
READOUT: AUC(0-t) (ng·h/mL)

molecule="Nc1ncnc2occ(-c3ccc(NC(=O)Nc4cc(C(F)(F)F)ccc4F)cc3)c12 [GW770249X]" recorded_value=20000
